Field: inhibition. Provide a value for each of the molecules that follow.
assay_system: Serine/threonine-protein kinase DCLK2 (Homo sapiens) (UniProt Q8N568);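 note: reported value is the mean percent inhibition of DCAMKL2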
Sequence (Q8N568 whole entry): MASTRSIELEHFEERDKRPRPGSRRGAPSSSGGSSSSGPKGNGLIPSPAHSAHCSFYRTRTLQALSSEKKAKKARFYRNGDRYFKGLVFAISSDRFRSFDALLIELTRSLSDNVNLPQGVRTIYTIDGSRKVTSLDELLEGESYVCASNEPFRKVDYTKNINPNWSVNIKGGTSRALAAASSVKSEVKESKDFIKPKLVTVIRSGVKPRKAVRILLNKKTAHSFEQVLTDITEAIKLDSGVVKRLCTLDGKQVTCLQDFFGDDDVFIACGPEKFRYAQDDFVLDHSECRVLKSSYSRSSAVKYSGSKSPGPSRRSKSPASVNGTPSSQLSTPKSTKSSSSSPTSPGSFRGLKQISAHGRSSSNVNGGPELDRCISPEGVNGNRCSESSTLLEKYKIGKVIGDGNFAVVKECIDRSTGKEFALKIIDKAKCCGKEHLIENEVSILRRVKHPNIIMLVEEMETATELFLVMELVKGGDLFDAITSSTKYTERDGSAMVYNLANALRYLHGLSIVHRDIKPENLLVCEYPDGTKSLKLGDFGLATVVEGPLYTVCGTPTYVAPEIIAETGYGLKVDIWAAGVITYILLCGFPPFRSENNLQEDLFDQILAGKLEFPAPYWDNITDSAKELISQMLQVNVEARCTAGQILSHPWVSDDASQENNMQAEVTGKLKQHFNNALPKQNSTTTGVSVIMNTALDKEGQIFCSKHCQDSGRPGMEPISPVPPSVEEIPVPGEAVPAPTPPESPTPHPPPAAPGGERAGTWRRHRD
setup_conditions: at 0.1 µM
Answer with the value and then the unit.

inhibition in this record for `NC(=O)c1cc(-c2ccc(F)cc2)cc(-c2ccncc2)c1N` : -0.12%

inhibition measured on `C[C@@H](Oc1cc(-n2cnc3ccc(OCC4CCN(C)CC4)cc32)sc1C(N)=O)c1ccccc1Cl` = 0.87%

Sample `O=C(Nc1ccc(Oc2ccc3[nH]c(NC(=O)c4ccccc4)nc3c2)cc1)Nc1cc(C(F)(F)F)ccc1F` ; inhibition observed: -1.34%

According to the records, this molecule `CN(C)CCCNc1nccc(-c2c(-c3ccc(F)cc3)nn3cc(C(F)(F)F)ccc23)n1` displays inhibition of -2.25%

Consider `CS(=O)(=O)CCNCc1ccc(-c2ccc3ncnc(Nc4ccc(OCc5ccccc5)c(Br)c4)c3c2)o1` . Its measured inhibition is -2.49%

inhibition in this record for `CNC(=O)c1cncc(/C=C/c2c(C)cccc2C)c1` : -0.24%

* * *

Hi there, I'd appreciate the recorded inhibition for every entry that follows.
assay_system: Mitogen-activated protein kinase 14 (Homo sapiens) (UniProt Q16539);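 note: values are mean percent inhibition of p38alpha kinase activity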
Sequence (Q16539 whole entry): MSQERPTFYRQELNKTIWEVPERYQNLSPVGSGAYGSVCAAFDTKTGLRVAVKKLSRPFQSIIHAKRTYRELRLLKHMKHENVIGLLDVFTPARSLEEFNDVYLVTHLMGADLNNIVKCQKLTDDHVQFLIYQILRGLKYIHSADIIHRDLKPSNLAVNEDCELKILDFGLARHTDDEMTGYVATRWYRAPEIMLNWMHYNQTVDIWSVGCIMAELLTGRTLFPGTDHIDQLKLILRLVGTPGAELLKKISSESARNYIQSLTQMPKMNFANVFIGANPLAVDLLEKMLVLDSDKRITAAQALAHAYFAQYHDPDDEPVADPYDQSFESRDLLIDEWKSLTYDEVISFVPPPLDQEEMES
setup_conditions: at 1 µM
Report as a plain number; the unit % is understood.

The molecule listed as COc1ccc2cc(-c3c(-c4ccncc4)nc(-c4ccc([S+](C)[O-])cc4C)n3C)ccc2c1 (centres undefined) shows inhibition equal to 8.45

# molecule `CN(C)CCOc1ccc(-c2cc(-c3ccc4c(c3)CCC4=NO)c(-c3ccncc3)o2)cc1` ; its inhibition = 0.13

The molecule listed as `C/C(Nc1ccc(S(N)(=O)=O)cc1)=C1/C(=O)Nc2ccccc21` shows inhibition equal to 3.43

Looking up `FC(F)(F)c1cccc(Nc2nccc(-c3cnn4nc(-c5ccccc5)ccc34)n2)c1` , I see its inhibition listed as 1.79

* * *

Please go through the items and note down their inhibition.
assay_system: CDK3/Cyclin E (Homo sapiens) (UniProt P24864+Q00526);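 note: each figure is a mean percent inhibition of the CDK3/cyclin E complex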
Sequence (P24864 whole entry, looked up): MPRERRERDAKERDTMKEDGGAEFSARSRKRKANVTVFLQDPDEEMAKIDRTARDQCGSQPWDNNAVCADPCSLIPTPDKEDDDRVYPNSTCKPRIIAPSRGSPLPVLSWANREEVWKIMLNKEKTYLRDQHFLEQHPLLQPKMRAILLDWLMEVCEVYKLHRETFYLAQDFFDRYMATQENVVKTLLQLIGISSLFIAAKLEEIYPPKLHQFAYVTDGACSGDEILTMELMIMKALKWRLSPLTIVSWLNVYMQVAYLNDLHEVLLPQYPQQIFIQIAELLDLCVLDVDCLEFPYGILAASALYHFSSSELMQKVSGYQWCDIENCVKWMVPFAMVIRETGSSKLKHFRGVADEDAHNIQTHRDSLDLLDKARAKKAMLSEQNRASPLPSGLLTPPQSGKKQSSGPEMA
Sequence (Q00526 whole entry, looked up): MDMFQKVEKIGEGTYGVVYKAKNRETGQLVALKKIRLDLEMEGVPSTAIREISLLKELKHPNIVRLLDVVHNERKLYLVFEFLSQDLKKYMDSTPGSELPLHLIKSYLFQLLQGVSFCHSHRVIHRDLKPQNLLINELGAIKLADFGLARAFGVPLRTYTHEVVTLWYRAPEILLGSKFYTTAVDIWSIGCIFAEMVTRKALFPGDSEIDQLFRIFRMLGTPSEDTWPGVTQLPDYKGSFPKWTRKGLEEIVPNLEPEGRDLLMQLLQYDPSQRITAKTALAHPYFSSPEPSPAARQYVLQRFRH
setup_conditions: at 1 µM
Please make sure the unit comes right after the number.

Field inhibition (entry `NS(=O)(=O)c1ccc(N/N=C2\C(=O)Nc3ccc(-c4cnco4)cc32)cc1` ) reads 89.2%

inhibition reported for this compound `O=C1Nc2ccc(I)cc2C1=Cc1cc(Br)c(O)c(Br)c1` : -2.28%

For `Fc1ccc(-c2ncn(C3CCNCC3)c2-c2ccnc(Oc3ccc(Oc4ccccc4)cc3)n2)cc1` the compound record lists inhibition as -1.29%

The recorded inhibition for `CCc1cccc(CC)c1/C=C/c1cncc(C(=O)NC)c1` is 1.62%

For reference, reported inhibition for `COc1cc(N2CCN(C(C)C)CC2)ccc1Nc1nc(Nc2ccc(F)cc2C(=O)NC[C@@H](O)CO)c2cc[nH]c2n1` stands at -3.1%

# inhibition of `CCc1nccc2c1nc(-c1nonc1N)n2CC` = -0.63%

For reference, reported inhibition for `Clc1ccc(CNc2nccc(-c3cnn4ncccc34)n2)cc1` stands at 17.3%

`COc1cccc(/C=N/Nc2ncnc3c2cnn3-c2cccc(OC)c2)c1` has a reported inhibition of -2.86%

// field: inhibition; key: `COC(=O)Nc1nc2ccc(Sc3ccc(NC(=O)Nc4cc(C(F)(F)F)ccc4F)cc3)cc2[nH]1` ; value = 0.64%

// field: inhibition; key: `CNC(=O)c1cncc(/C=C/c2c(C)cccc2C)c1` ; value = -0.8%

// `C[C@@H](Oc1cc(-n2cnc3ccc(OC4CCN(C)CC4)cc32)sc1C(N)=O)c1ccccc1Cl` : inhibition value = 0.13%

Lab book: inhibition of `Cc1ccc(C(=O)NC(C)C)cc1-c1ccc(C(=O)NCC2CC2)cc1` noted as -1.55%

Note to self: inhibition recorded for Nc1nccc(-c2c(-c3ccc(F)cc3)ncn2C2CCC(O)CC2)n1 (configuration not stated) was -0.81%

Form field inhibition, entry `COc1cc2ncn(-c3cc(OCCc4ccccc4)c(C(N)=O)s3)c2cc1OC` : 0.51%

Per the records, this compound ( `NCc1ccc(-n2c(-c3nonc3N)nc3cnccc32)cc1` ) has inhibition equal to 6.36%

Data point: `CCS(=O)(=O)c1ccc(OC)c(Nc2ncc(-c3cccc(-c4ccccc4F)c3)o2)c1` ; inhibition = 1.22%

Note to self: inhibition recorded for `Fc1ccc(-c2ncn(C3CCNCC3)c2-c2ccnc(Oc3ccc4c(c3)OCO4)n2)cc1` was -0.86%

Reported inhibition for `Cc1nnc(-c2ccc(C)c(-c3ccc(C(=O)NCc4ccc(Cl)cc4)cc3)c2)o1` was -2.98%

Sure, the documented inhibition for `O=C(Nc1n[nH]c2cc(-c3ccccc3)ccc12)C1CC1` is 4.6%

Item: `O=C(Nc1n[nH]c2nc(-c3ccco3)ccc12)C1CC1` | inhibition: 4.64%

// inhibition value for `COc1cc2ncn(-c3cc(OCc4cccs4)c(C(N)=O)s3)c2cc1OC` : 2.15%

Entry `CS(=O)(=O)CCNCc1ccc(-c2ccc3ncnc(Nc4ccc(OCc5ccccc5)c(Br)c4)c3c2)o1` , inhibition reported as -3.92%

Reported inhibition ( `COc1ccc(C2=C(N3CCc4ccccc43)C(=O)NC2=O)cc1` ) = -1.35%

// sample `COc1cc(Nc2ncc(-c3ccccc3)o2)cc(OC)c1OC` , its inhibition was 5.95%

inhibition reading for `CN(C)CCOc1ccc(-c2cc(-c3ccc4c(c3)CCC4=NO)c(-c3ccncc3)o2)cc1` : -0.71%

Entry under test: COc1ccc2cc(-c3c(-c4ccncc4)nc(-c4ccc([S+](C)[O-])cc4C)n3C)ccc2c1 (configuration not stated) . Its inhibition was 0.89%

So for `COc1cc(C)c(N(C)C(=O)CN(C)C)cc1Nc1nc(Nc2cccc(F)c2C(N)=O)c2cc[nH]c2n1` , the logged inhibition turned out to be 0.55%

For `Fc1ccc(-c2nc3n(c2-c2ccncc2)CCS3)cc1` the compound record lists inhibition as -2.73%

The recorded inhibition for entry `COc1cccc(-n2cnc3c(N/N=C/c4ccncc4)ncnc32)c1` equals 0.9%

inhibition reported for this compound `O=C(Nc1n[nH]c2nc(-c3ccc(O)cc3)c(Br)cc12)C1CC1` : 78.2%

The compound identified as `CCC(=O)Nc1ccc(C)c(-c2ccc(C(=O)NCC3CC3)cc2)c1` registered its inhibition at -2.39%

The reported value for `NC(=O)Cc1ccccc1Oc1nccc(-c2c(-c3ccc(F)cc3)ncn2C2CCNCC2)n1` in terms of inhibition is -1.4%

* * *

Assignment: determine reported inhibition for the given compounds.
assay_system: 5'-AMP-activated protein kinase catalytic subunit alpha-1 (Homo sapiens) (UniProt Q13131);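 note: mean percent inhibition of the AMPK A1B1G1 complex (alpha1 beta1 gamma1) in the GSK PKIS kinase inhibitor screen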
Sequence (Q13131 whole entry, looked up): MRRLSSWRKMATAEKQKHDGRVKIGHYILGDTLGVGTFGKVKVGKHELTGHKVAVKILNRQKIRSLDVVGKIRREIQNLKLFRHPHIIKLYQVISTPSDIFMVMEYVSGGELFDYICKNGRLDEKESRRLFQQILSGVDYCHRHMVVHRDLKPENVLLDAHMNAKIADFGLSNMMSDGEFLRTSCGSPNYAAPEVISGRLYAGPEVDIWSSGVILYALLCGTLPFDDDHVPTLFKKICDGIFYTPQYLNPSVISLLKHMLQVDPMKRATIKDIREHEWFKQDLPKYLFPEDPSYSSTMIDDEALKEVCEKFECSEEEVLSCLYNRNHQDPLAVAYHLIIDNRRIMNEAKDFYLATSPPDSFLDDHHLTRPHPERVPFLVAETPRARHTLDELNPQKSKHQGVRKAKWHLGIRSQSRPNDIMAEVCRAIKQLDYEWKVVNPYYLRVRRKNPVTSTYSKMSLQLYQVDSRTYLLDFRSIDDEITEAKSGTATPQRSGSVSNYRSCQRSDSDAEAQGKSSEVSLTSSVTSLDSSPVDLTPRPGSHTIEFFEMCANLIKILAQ
setup_conditions: at 1 µM
Give a bare numeral; the unit % is implied.

The reported inhibition of the compound `NC(=O)c1cc(-c2ccncc2)cc(-c2ccccc2)c1N` was 2.86

inhibition in this record for `COC(=O)Nc1nc2ccc(Sc3ccc(NC(=O)Nc4cc(C(F)(F)F)ccc4F)cc3)cc2[nH]1` : 0.23

Input `O=C1Nc2ccc(I)cc2C1=Cc1cc(Br)c(O)c(Br)c1` . Output inhibition: 3.41

For reference, reported inhibition for `Clc1ccc(CNc2nccc(-c3cnn4ncccc34)n2)cc1` stands at 1.83

compound `CCc1ccc(Oc2nccc(-c3c(-c4ccc(F)cc4)ncn3C3CCNCC3)n2)cc1` , inhibition observed: 8.69

// sample `CN(C)CCCNc1nccc(-c2c(-c3ccc(F)cc3)nn3cc(C(F)(F)F)ccc23)n1` , its inhibition was 1.37

inhibition reading for `O=C1NC(=O)C(c2cccc(Cl)c2)=C1Nc1ccc(Cl)c(C(=O)O)c1` : 3.89

inhibition recorded for this compound, `O=C(Nc1n[nH]c2cc(-c3ccccc3)ccc12)C1CC1` , is 4.22

Record `c1ccc(-c2n[nH]cc2-c2ccnc(-c3ccc(OCCN4CCOCC4)cc3)c2)nc1` . Reported inhibition: -0.75

Please fill in: inhibition reported for `C/C(Nc1ccc(S(N)(=O)=O)cc1)=C1/C(=O)Nc2ccccc21` = 9.79

For record `COc1cc(Nc2ncc3c(C)nc(-c4cccc(Oc5ccccc5)c4)n3n2)cc(OC)c1OC` the listed inhibition is 13

For `C[C@@H](Oc1cc(-n2cnc3ccc(OC4CCN(C)CC4)cc32)sc1C(N)=O)c1ccccc1Cl` the compound record lists inhibition as 21.6

The value of inhibition measured for the compound `CN1CCN(CCCNc2nc3ccc(Oc4ccc(NC(=O)Nc5cc(C(F)(F)F)ccc5F)cc4)cc3[nH]2)CC1` turned out to be -0.25

Lab note: `O=C(Nc1n[nH]c2nc(-c3ccco3)ccc12)C1CC1` gave inhibition of 1.85

Item: `CCS(=O)(=O)c1ccc(OC)c(Nc2ncc(-c3ccccc3Cl)o2)c1` | inhibition: 0.82

Data point: `O=C(Nc1ccc(Oc2ccc3[nH]c(NC(=O)c4ccccc4)nc3c2)cc1)Nc1cc(C(F)(F)F)ccc1F` ; inhibition = 2.98

Item: `COc1cc2ncn(-c3cc(OCc4ccccc4C(F)(F)F)c(C(C)=O)s3)c2cc1OC` | inhibition: 2.83

Entry `Cc1ccc(NC(=O)c2ccoc2)cc1-c1ccc(C(=O)NCC2CC2)cc1` — recorded inhibition = 1.06

Reported inhibition ( `COc1ccc(C2=C(N3CCc4ccccc43)C(=O)NC2=O)cc1` ) = 5.67

// field: inhibition; key: `Fc1ccc(-c2c(-c3ccncc3)nc3n2CCS3)cc1` ; value = 6.81

Value of inhibition reported for the compound `CCc1cccc(CC)c1/C=C/c1cncc(C(=O)NC)c1` is 1.48

Value of inhibition reported for the compound `COc1ccc(-c2ccc3c(NC(=O)C4CC4)n[nH]c3n2)cc1` is 2.02

The compound listed as `c1ccc(Oc2ccc(Nc3ncc(-c4ccccc4)o3)cc2)cc1` shows inhibition equal to 3.46

// sample `C#Cc1cccc(Nc2ncnc3ccc(OCCCCNCCS(C)(=O)=O)cc23)c1` , its inhibition was 6.4

Summary for this compound, `COc1cc2ncn(-c3cc(OCc4cccs4)c(C(N)=O)s3)c2cc1OC` : inhibition is 12.8

Entry `NS(=O)(=O)c1ccc(N/N=C2\C(=O)Nc3ccc(C(=O)NCCCn4ccnc4)cc32)cc1` , inhibition reported as 64.4

Sure, the documented inhibition for `O=C1Nc2ccccc2/C1=C/Nc1ccc(-n2cncn2)cc1` is 19.3

inhibition reading for `FC(F)(F)c1cccc(Nc2nccc(-c3cnn4nc(-c5ccccc5)ccc34)n2)c1` : 1.87

Kindly note the recorded inhibition for Nc1nccc(-c2c(-c3ccc(F)cc3)ncn2C2CCC(O)CC2)n1 (stereo not drawn) , which is 0.93

GET /value?item= `NCc1ccc(-n2c(-c3nonc3N)nc3cnccc32)cc1` &field=inhibition returns 7.27

So for `Cc1nnc(-c2ccc(C)c(-c3ccc(C(=O)NCc4ccc(Cl)cc4)cc3)c2)o1` , the logged inhibition turned out to be 3.4

In plain terms, `Cc1ccc(C(=O)NC2CCC2)cc1-c1ccc(C(=O)NCC2CC2)cc1` has a documented inhibition of 1.46

According to the records, this compound `CCc1nccc2c1nc(-c1nonc1N)n2CC` displays inhibition of -1.23
